Source listed as ChEMBL document CHEMBL5576069.

test: Cytotoxicity against rat L6 cells; assay type: toxicity, cell-based
Below: a set of entries, each annotated with reported EC50.
quantity-kind: EC50 (µM)

>>> readout_number("CN1CCN(c2ccc(-c3cc(-c4cccc(Br)c4)nc(N)n3)cc2)CC1")
33.6
>>> readout_number("CN1CCN(c2ccc(-c3cc(-c4ccccc4[N+](=O)[O-])nc(N)n3)cc2)CC1")
7.1
>>> readout_number("Cc1nc(-c2ccc(Br)cc2)cc(-c2ccc(N3CCN(C)CC3)cc2)n1")
11.2
>>> readout_number("CN1CCN(c2ccc(-c3cc(-c4ccc(Cl)cc4Cl)nc(N)n3)cc2)CC1")
7.4
>>> readout_number("CN1CCN(c2ccc(-c3cc(-c4cccc(Br)c4)ncn3)cc2)CC1")
64.5
>>> readout_number("CN1CCN(c2ccc(-c3cc(-c4cccc(Cl)c4)nc(N)n3)cc2)CC1")
79.7
>>> readout_number("CN1CCN(c2ccc(-c3cc(-c4ccccc4)nc(N)n3)cc2)CC1")
30
>>> readout_number("CN1CCN(c2ccc(-c3cc(-c4ccc(Cl)cc4)ncn3)cc2)CC1")
16.4

====

Below: a set of entries, each annotated with reported EC50.
test system: Trypanosoma brucei rhodesiense; assay: Antitrypanosomal activity against Trypanosoma brucei rhodesiense STIB900 trypomastigotes incubated for 70 hrs by resazurin dye based microplate fluorometer; assay type: functional, organism-based; conditions: STIB900, 70 h
quantity-kind: EC50 (µM)

>>> readout_number("Cc1nc(-c2ccc(N3CCN(C)CC3)cc2)cc(-c2cccc(Cl)c2)n1")
1.7
>>> readout_number("CN1CCN(c2ccc(-c3cc(-c4ccc(Cl)cc4)nc(N)n3)cc2)CC1")
1.8
>>> readout_number("CN1CCN(c2ccc(-c3cc(-c4cccc(Cl)c4Cl)ncn3)cc2)CC1")
1.8
>>> readout_number("Cc1nc(-c2ccc(N3CCN(C)CC3)cc2)cc(-c2cccc(Cl)c2Cl)n1")
3.6
>>> readout_number("CN1CCN(c2ccc(-c3cc(-c4ccc(Cl)cc4Cl)nc(N)n3)cc2)CC1")
0.5
>>> readout_number("CN1CCN(c2ccc(-c3cc(-c4ccc(Cl)cc4Cl)ncn3)cc2)CC1")
2.4
>>> readout_number("CN1CCN(c2ccc(-c3cc(-c4cccc(Br)c4)nc(N)n3)cc2)CC1")
1.1
>>> readout_number("CN1CCN(c2ccc(-c3cc(-c4ccccc4Br)ncn3)cc2)CC1")
9.7
>>> readout_number("CN1CCN(c2ccc(-c3cc(-c4cccc(Br)c4)ncn3)cc2)CC1")
1.6
>>> readout_number("CN1CCN(c2ccc(-c3cc(-c4ccc(Br)cc4)nc(N)n3)cc2)CC1")
1.6

====

system: Trypanosoma brucei rhodesiense; assay: Antitrypanosomal activity against Trypanosoma brucei rhodesiense; format: functional, organism-based
quantity-kind: EC50 (nM)

>>> readout_number("CSc1ccc(OCc2ncc([N+](=O)[O-])n2C)cc1")
760

====

assay: Cytotoxicity against rat L6 cells; assay type: toxicity, cell-based
pEC50: −log10 of the molar value.
Below: a set of entries, each annotated with reported pEC50.
quantity-kind: pEC50

>>> readout_number("Cc1nc(-c2ccc(N3CCN(C)CC3)cc2)cc(-c2ccccc2Br)n1")
4.45
>>> readout_number("CN1CCN(c2ccc(-c3cc(-c4cccc(Cl)c4)ncn3)cc2)CC1")
4.44
>>> readout_number("CN1CCN(c2ccc(-c3cc(-c4ccccc4Cl)nc(N)n3)cc2)CC1")
4.40
>>> readout_number("COc1cc([C@@H]2c3cc4c(cc3[C@H](O)[C@H]3COC(=O)[C@H]23)OCO4)cc(OC)c1OC")
7.70
>>> readout_number("Cc1nc(-c2ccc(N3CCN(C)CC3)cc2)cc(-c2cccc(Br)c2)n1")
4.68
>>> readout_number("CN1CCN(c2ccc(-c3cc(-c4ccccc4)ncn3)cc2)CC1")
4.37
>>> readout_number("CN1CCN(c2ccc(-c3cc(-c4ccccc4Cl)ncn3)cc2)CC1")
4.37
>>> readout_number("CN1CCN(c2ccc(-c3cc(-c4ccc(Cl)cc4)nc(N)n3)cc2)CC1")
4.89
>>> readout_number("Cc1nc(-c2ccc(N3CCN(C)CC3)cc2)cc(-c2cccc(Cl)c2)n1")
4.68
>>> readout_number("CN1CCN(c2ccc(-c3cc(-c4ccc(Br)cc4)ncn3)cc2)CC1")
4.84
>>> readout_number("CN1CCN(c2ccc(-c3cc(-c4ccccc4Br)ncn3)cc2)CC1")
4.40
>>> readout_number("CN1CCN(c2ccc(-c3cc(-c4cccc(Cl)c4Cl)ncn3)cc2)CC1")
4.74
>>> readout_number("Cc1nc(-c2ccc(N3CCN(C)CC3)cc2)cc(-c2ccccc2[N+](=O)[O-])n1")
4.40
>>> readout_number("Cc1nc(-c2ccc(N3CCN(C)CC3)cc2)cc(-c2cccc(Cl)c2Cl)n1")
4.43
>>> readout_number("Cc1nc(-c2ccccc2)cc(-c2ccc(N3CCN(C)CC3)cc2)n1")
4.10
>>> readout_number("CN1CCN(c2ccc(-c3cc(-c4ccccc4[N+](=O)[O-])ncn3)cc2)CC1")
4.33
>>> readout_number("CN1CCN(c2ccc(-c3cc(-c4ccc(Br)cc4)nc(N)n3)cc2)CC1")
5.29
>>> readout_number("Cc1nc(-c2ccc(Cl)cc2)cc(-c2ccc(N3CCN(C)CC3)cc2)n1")
5.28
>>> readout_number("CN1CCN(c2ccc(-c3cc(-c4ccccc4Br)nc(N)n3)cc2)CC1")
4.94
